assay: pKa estimation by UV-VIS absorbance at different pHs; assay type: physicochemical; settings: UV absorbance at pH 5-7.5
reported metric: pKa

Summary for this compound, Cn1ccnc1/C=C/C(=O)c1ccccc1 : pKa is 5.5 to 6
